ASSAYED_SYSTEM: FGFR3 (as measured by BIAcore, Table 1) (UniProt P22607)
TEST_NAME: BIAcore (receptor not given)
Listing of recorded koff by entry.
All answers are understood in s⁻¹, so give the number only.

These recorded examples may help you get a feel for the data.
PRO-055 (Fab, V domains shown) VH: QVQLVQSGAEVKKPGASVKVSCKASGYTFTSYYMHWVRQAPGQGLEWMGWINPNSGGTNYAQKFQGRVTMTRDTSISTAYMELSSLRSEDTAVYYCARSMNSTMYWYLRRVLFDHWGQGTLVTVSS VL: DIALTQPASVSGSPGQSITISCTGTSSDVGGYNYVSWYQQHPGKAPKLMIYDVSNRPSGVSNRFSGSKSGNTASLTISGLQAEDEADYYCQSYDMYNYIVFGGGTKLTVLG    0.00074
PRO-054 (Fab, V domains shown) VH: QVQLVQSGAEVKKPGASVKVSCKASGYTFTSYYMHWVRQAPGQGLEWMGWINPNSGGTNYAQKFQGRVTMTRDTSISTAYMELSSLRSEDTAVYYCARNMAYTNYQYVNMPHFDYWGQGTLVTVSS VL: DIELTQPPSVSVAPGQTARISCSGDALGDKYASWYQQKPGQAPVLVIYDDSDRPSGIPERFSGSNSGNTATLTISGTQAEDEADYYCQSYDYFKLVFGGGTKLTVLG    0.002

Task: Can you share its koff? I mean this binder: PRO-029 (Fab, V domains shown) VH: QVQLVQSGAEVKKPGASVKVSCKASGYTFTSYYMHWVRQAPGQGLEWMGWINPNSGGTNYAQKFQGRVTMTRDTSISTAYMELSSLRSEDTAVYYCARTWQYSYFYYLDGGYYFDIWGQGTLVTVSS VL: DIVLTQSPATLSLSPGERATLSCRASQSVSSSYLAWYQQKPGQAPRLLIYGASSRATGVPARFSGSGSGTDFTLTISSLEPEDFATYYCQQTNNAPVTFGQGTKVEIKR
Output: 0.0014
